Biological target: Luciferin 4-monooxygenase (Photinus pyralis)
Test: firefly luciferase enzyme inhibitors, primary screen, biochemical, luminescence, purified enzyme, 2006 set (AID 1141);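 note: cell-free assay with purified firefly luciferase at 100 ng per well in PBS; test concentration not given here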
Conditions: SteadyGlo luminescence, 30 min, called active from +8 up or from −8 down
Active and inactive are the calls of the source.
Output constraint: value belongs to TRUE (active), FALSE (inactive)

[Q] For this molecule, state the assay outcome: C=C(/C(=C/C[C@H](OC(C)=O)c1ccccc1OCCO)c1cnc2ccccc2c1)C(C)C
[A] FALSE

[Q] Quick one: COc1cc2c(cc1OC)CN(C(=O)[C@@H]1[C@H]3C(=O)O[C@H](c4ccccc4)[C@H](c4ccccc4)N3[C@H](c3ccccc3OCCO)[C@@]13C(=O)Nc1ccc(C#CCCO)cc13)CC2
[A] FALSE

[Q] Do the same for O=C(NCCO)C1=C[C@H](Oc2ccccc2I)[C@@H](O)[C@H](N(Cc2ccco2)C(=O)Cc2ccccc2)C1 please
[A] FALSE

[Q] Please give the result for [N-]=[N+]=Nc1ccccc1[C@H]1OC(c2ccc(OCCCO)cc2)=N[C@@]1(CCS(=O)(=O)c1ccccc1)C(=O)NCC(O)CO (stereo partly specified) too.
[A] TRUE

[Q] Next molecule up: C=CCNC(=O)[C@@H]1[C@H]2C(=O)O[C@H](c3ccccc3)[C@H](c3ccccc3)N2[C@H](c2ccc(OCCO)cc2)[C@@]12C(=O)Nc1ccc(C#CCC(C(=O)OC)C(=O)OC)cc12
[A] FALSE

[Q] // query: CCC(CC)C(O)C1C=CC2C(=O)NC(=O)C2N1Nc1ccc(Cl)cc1Cl (stereo unspecified)
[A] FALSE

[Q] // query: COC(=O)[C@@]1(Cc2ccccc2)[C@H]2c3cc(C(=O)N4CCCC4)n(Cc4ccc(S(C)(=O)=O)cc4)c3C[C@H]2CN1C(=O)c1ccccc1
[A] FALSE

[Q] Record: O=C(c1ccccc1)N1C(=O)[C@]2(COC(c3ccc(OCCCO)cc3)=N2)Cc2ccccc21
[A] FALSE

[Q] Same thing, different molecule: O=C1C2C=CC(C(O)CCc3ccccc3)N(Nc3ccccc3F)C2C(=O)N1c1ccccc1 (stereo unspecified)
[A] FALSE

[Q] Check COC(=O)C(CC#Cc1ccc2c(c1)[C@]1(C(=O)N2)[C@H](C(=O)Nc2nc3ccccc3s2)[C@H]2C(=O)O[C@H](c3ccccc3)[C@H](c3ccccc3)N2[C@@H]1c1ccc(O)cc1)C(=O)OC too.
[A] FALSE

[Q] Now this one: COC(=O)[C@@]1(Cc2ccc(F)cc2)[C@H]2c3cc(C(=O)N4CCCC4)n(CCCNc4ncc(C(F)(F)F)cc4Cl)c3C[C@H]2CN1C(=O)c1ccccc1
[A] FALSE

====

Experiment: small-molecule binders of probe aNOTCH2, primary screen, biochemical, small-molecule microarray, 635/667 nm fluorescence (AID 1121);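 note: score merges feature fluorescence read at 667 nm with its signal to noise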
Details: higher = more signal
Lab note: compare composite z-score against -0.05. Equal or greater, write Yes. Smaller, write No.

[Q] Textbook exercise: given the entry CCOC(=O)C1=CC[C@@H](c2ccccc2)N(S(=O)(=O)c2ccc(C)cc2)[C@H]1c1ccccc1C , state whether its composite z-score is greater than or equal to -0.05.
[A] Yes

[Q] Follow-up entry: COCCOC(=O)N1C(=O)[C@@]2(c3cc(C#CCC(C(=O)OC)C(=O)OC)ccc31)[C@H](c1ccccc1OCCO)N1[C@H](c3ccccc3)[C@H](c3ccccc3)OC(=O)[C@H]1[C@@H]2C(=O)N1CCN(c2ncccn2)CC1
[A] Yes

[Q] Follow-up item: COCCOC(=O)N1C(=O)[C@@]2(c3cc(C#CCCO)ccc31)[C@H](C(N)=O)[C@H]1C(=O)O[C@H](c3ccccc3)[C@H](c3ccccc3)N1[C@@H]2c1ccc(O)cc1
[A] No

[Q] One more compound: COC(=O)[C@@]1(Cc2ccc(OC)cc2)[C@@H]2C(=CC(=O)[C@H]2CC(=O)C(=O)N2CCCC2)CN1C(=O)c1ccccc1
[A] No

[Q] Another compound: CCC[C@@H]1C[C@@]1(CCC)[C@@H](NC(=O)c1ccccc1)c1cccc(Cl)c1
[A] Yes

[Q] Input COc1cc(C(O)C2C=CC3C(=O)NC(=O)C3N2Nc2ccccn2)cc(OC)c1OC (configuration not stated)
[A] Yes

[Q] # repeat for COC(=O)[C@@]1(Cc2ccc(OC)cc2)[C@H]2c3cc(C(=O)N(C)C)n(Cc4ccccn4)c3C[C@H]2CN1C(=O)c1ccccc1
[A] Yes

[Q] Same again, this time with Cc1ccc(S[C@]2(C(=O)NC3CC3)CC(=O)N(Cc3ccccc3)[C@@H]2c2ccc(CO)cc2I)cc1
[A] Yes

[Q] Also C=CCNC(=O)[C@@H]1[C@H]2C(=O)O[C@H](c3ccccc3)[C@H](c3ccccc3)N2[C@H](c2ccc(OCCO)cc2)[C@@]12C(=O)Nc1ccc(C#CCC(C(=O)OC)C(=O)OC)cc12 , if possible.
[A] Yes

[Q] // repeat for CC(C)[Si]1(C(C)C)O[C@@H](c2ccccc2)c2cc(-c3ccc(-c4ccc(Cl)c(Cl)c4)o3)nc(-c3ccccc3)c21 and report
[A] No

[Q] C=CC[C@@]1(C(=O)NCCN2CCOCC2)N=C(c2ccc(OCCCO)cc2)O[C@@H]1c1ccccc1N=[N+]=[N-] , same question.
[A] No

====

Test: compound binding in COS7 lysate, probe aLAP1, primary screen, cell lysate, small-molecule microarray (AID 1124);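 note: lysate comes from COS7 cells expressing LAP1 and is applied at 0.3 µg/mL; score merges spot fluorescence near 667 nm with signal-to-noise over triplicate slides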
Settings: probe aLAP1, fluorescence, higher = more signal
Field: composite z-score. Provide a value for each of the compounds that follow.
// keep it numeric: no unit symbol after the value

[Q] Item Cc1ccc(N2C(=O)c3ccccc3[C@@H](C(=O)NC3CC3)[C@@H]2c2ccc(CO)cc2)nc1 has what recorded composite z-score?
[A] 0.653

[Q] Further, for [N-]=[N+]=Nc1ccccc1[C@H]1OC(c2ccc(OCCCO)cc2)=N[C@@]1(CCS(=O)(=O)c1ccccc1)C(N)=O ?
[A] 0.469

[Q] # iterate: COC(=O)[C@@]1(Cc2ccc(OC)cc2)[C@H]2c3cc(C(=O)N(C)C)n(Cc4ccccn4)c3C[C@H]2CN1C(=O)c1ccccc1
[A] 1.03

[Q] Would you kindly repeat that for O=C1NC(=O)C2C1C=CC(C(O)c1cc(C(F)(F)F)cc(C(F)(F)F)c1)N2Nc1ccccn1 (stereo unspecified) ?
[A] 0.536

[Q] Also, C#C[C@H](O[Si](C#Cc1ccc(Oc2ccccc2)cc1)(C(C)C)C(C)C)c1ccccc1 please.
[A] 0.484

[Q] Field entry: CC(=O)n1cc(C(O)C2C=CC3C(=O)N(c4ccccc4)C(=O)C3N2Nc2ccc([N+](=O)[O-])cc2)c2ccccc21 (stereo unspecified)
[A] 1.33

[Q] Then this compound: CCOC(=O)[C@H]1C/C=C/C[C@H](C(=O)OCC)C(=O)O[C@H]2[C@@H](OC)O[C@H](CO)[C@@H](OC(=O)c3c(OC)cccc3OC)[C@@H]2OC1=O
[A] 0.47

[Q] Another compound to look at: COC(=O)[C@@]1(Cc2ccccc2)[C@H]2c3cc(C(=O)N(C)C)n(Cc4ccsc4Br)c3C[C@H]2CN1C(=O)c1ccccc1
[A] -0.0415

[Q] Field entry: [N-]=[N+]=NCc1ccccc1[C@@H]1OC(c2ccc(OCCCO)cc2)=N[C@]1(Cc1ccccc1)C(=O)NCC(O)CO (stereo partly specified)
[A] 1.18

[Q] Follow-up item: CC(C)C(=C=CC[C@@H](O)c1ccc(OCCO)cc1)C[C@@H](O)c1ccccn1
[A] 0.33

[Q] Try CC(C)CNC(=O)[C@@]1(Cc2ccccc2I)c2ccccc2C(=O)N(C2CCCCC2)[C@H]1c1ccc(CO)cc1 next.
[A] 2.06

[Q] Note, next up: COC(=O)[C@@]1(CCS(=O)(=O)c2ccccc2)N=C(c2ccc(OCCCO)cc2)O[C@H]1c1ccccc1CN=[N+]=[N-]
[A] 0.372

[Q] CC(C)C(O)C1C=CC2C(=O)N(c3ccccc3)C(=O)C2N1Nc1ccc([N+](=O)[O-])cc1 (stereo unspecified) ?
[A] 0.894

[Q] Can you handle O=C(NCCN1CCOCC1)[C@@H]1c2ccccc2C(=O)N(C2CCCCC2)[C@H]1c1ccc(CO)cc1 next?
[A] -0.0871

[Q] What about CC(=O)NCCCC[C@@H]1NC(=O)[C@@H]2C[C@H](C(=O)NCCCCCNC(=O)CS)[C@H](c3cccc(OCCO)c3)N2C1=O ?
[A] -0.0909

[Q] Entry CC[C@@H]1C=C(C(=O)O)[C@H](c2ccc(Br)cc2)N1S(=O)(=O)c1ccc(C)cc1 please
[A] 0.98

====

Assay: RPMI8226 myeloma cell viability, profiling panel, resazurin fluorescence, basal, 24 h, PK04 Diversity Set (AID 1180);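 note: RPMI8826 multiple myeloma cell line at 5000 cells per well; test concentration not given here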
Settings: higher = more signal
Binary classification by z-score, with -0.3 as an inclusive lower bound for y; all other cases are n.

[Q] Check if z-score >= -0.3 (inclusive). Item: O=C1O[C@@H](c2ccccc2)[C@@H](c2ccccc2)N2[C@@H](c3ccccc3OCCO)[C@]3(C(=O)Nc4ccccc43)[C@@H](C(=O)Nc3nc4ccccc4s3)[C@H]12
[A] n

[Q] Next entry: CCOC(=O)C[C@H]1[C@H](OC(=O)c2ccc(C(=O)c3ccccc3)cc2)[C@@H](NC(=O)c2ccccc2)c2cc(OCCCO)ccc2N1C(=O)c1ccc2ccccc2n1
[A] y

[Q] # iterate: CCCCCCc1nc(-c2cc(C)c(OC)c(C)c2)cc2c1[Si](C(C)C)(C(C)C)OC2
[A] y

[Q] Now try COc1ccc(C#Cc2ccc3c(c2)[C@]2(C(=O)N3)[C@H](C(=O)NC[C@H](O)c3ccccc3)[C@H]3C(=O)O[C@H](c4ccccc4)[C@H](c4ccccc4)N3[C@@H]2c2ccc(O)cc2)cc1 .
[A] n

[Q] And what about the compound O=C1c2ccccc2[C@](Cc2ccccc2I)(C(=O)NCCN2CCOCC2)[C@H](c2ccc(CO)cc2)N1Cc1ccccc1Cl ?
[A] y

[Q] Next up: COc1ccc(C(O)C2C=CC3C(=O)N(Cc4ccccc4)C(=O)C3N2n2cnnc2)cc1OCc1ccccc1 (configuration not stated)
[A] y
